target: KRAS (aa 1-169) G12C, C51S, C80L, C118S (Homo sapiens (Human), UniProt P01116, C118S/C51S/C80L/G12C); test: Biochemical functional assay: SOS1-mediated nucleotide exchange of GDP-loaded KRAS G12C, binding to GST-cRaf RBD, FRET readout; details: 3 hrs pre-incubation with compound at 24° C., SOS1, GTPyS, inhibition of nucleotide exchange
Sequence (P01116 other isoform, or with tags, fused parts or gaps G12C/C51S/C80L/C118S): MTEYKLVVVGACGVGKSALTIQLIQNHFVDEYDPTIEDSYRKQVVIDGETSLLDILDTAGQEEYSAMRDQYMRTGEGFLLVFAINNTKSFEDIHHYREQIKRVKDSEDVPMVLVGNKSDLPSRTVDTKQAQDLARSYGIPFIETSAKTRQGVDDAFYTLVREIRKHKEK
pIC50: −log10 of the molar value.
Rule: pIC50 of 7 or more gives label 1; anything lower gives label 0.

Please indicate if the recorded pIC50 for C=CC(=O)N1CCN(c2nc(OC[C@@H]3CCCN3C)nc3cc(-c4c(O)cccc4F)c4ccoc4c23)CC1 meets or exceeds 7. label 0

Please indicate if the recorded pIC50 for C=C(F)C(=O)N1CCN(c2nc(OC[C@@H]3CCCN3C)nc3cc(-c4ccccc4F)c4c(c23)OCCC4)C[C@@H]1CC#N meets or exceeds 7. label 0

Please indicate if the recorded pIC50 for C=C(F)C(=O)N1CCN(c2nc(OC[C@@H]3CCCN3C)nc3cc(-c4c(Cl)c(Cl)cc5[nH]ncc45)c4c(c23)OCCC4)C[C@@H]1CC#N meets or exceeds 7. label 1

Please indicate if the recorded pIC50 for C=C(F)C(=O)N1CCN(c2nc(N3CC(N(C)C)C3)nc3cc(-c4cccc5cccc(Cl)c45)c4c(c23)OCCC4)C[C@@H]1CC#N (single isomer, unassigned) [Compound B101] meets or exceeds 7. label 1

Please indicate if the recorded pIC50 for C=C(F)C(=O)N1CCN(c2nc(OC[C@@H]3CCCN3C)nc3cc(-c4cccc5c4CCCC5)c4c(c23)OCCC4)C[C@@H]1CC#N meets or exceeds 7. label 1

Please indicate if the recorded pIC50 for C=C(F)C(=O)N1CCN(c2nc(OCC3C[C@@H](OC)CN3C)nc3cc(-c4cccc5cccc(Cl)c45)c4c(c23)OCCC4)C[C@@H]1CC#N (mixture of isomers) [Compound B93] meets or exceeds 7. label 1

Please indicate if the recorded pIC50 for C=C(F)C(=O)N1CCN(c2nc(OC[C@@H]3CCCN3C)nc3cc(-c4ccc(Cl)c5ccccc45)c4c(c23)OCCC4)C[C@@H]1CC#N meets or exceeds 7. label 0

Please indicate if the recorded pIC50 for C=CC(=O)N1CCN(c2nc(OC[C@@H]3CCCN3C)nc3cc(-c4ccccc4F)c4ccoc4c23)CC1 meets or exceeds 7. label 0

Please indicate if the recorded pIC50 for C=CC(=O)N1CCN(c2nc(O[C@H]3CN(C)C[C@@H]3OC)nc3cc(-c4c(Cl)c(C)cc5[nH]ncc45)c4c(c23)OCCC4)C[C@@H]1CC#N meets or exceeds 7. label 1

Please indicate if the recorded pIC50 for C=CC(=O)N1CCN(c2ncnc3cc(-c4c(Cl)c(F)cc5[nH]ncc45)c4c(c23)OCCC4)C[C@@H]1CC#N meets or exceeds 7. label 1

Please indicate if the recorded pIC50 for C=C(F)C(=O)N1CCN(c2nc(OC[C@]3(C)CCCN3C)nc3cc(-c4cccc5cccc(Cl)c45)c4c(c23)OCCC4)C[C@@H]1CC#N meets or exceeds 7. label 0

Please indicate if the recorded pIC50 for C=C(F)C(=O)N1CCN(c2nc(OC[C@@H]3COCCN3C)nc3cc(-c4cccc5cccc(Cl)c45)c4c(c23)OCCC4)C[C@@H]1CC#N meets or exceeds 7. label 0

Please indicate if the recorded pIC50 for C=C(F)C(=O)N1CCN(c2nc(N3CC(N(C)C)C3)nc3cc(-c4cccc(F)c4F)c4c(c23)OCCC4)C[C@@H]1CC#N meets or exceeds 7. label 0

Please indicate if the recorded pIC50 for C=CC(=O)N1CCN(c2ncnc3cc(-c4cnc(N)cc4C(F)(F)F)c4c(c23)OCCC4)C[C@@H]1CC#N meets or exceeds 7. label 0

Please indicate if the recorded pIC50 for C=CC(=O)N1CCN(c2nc(OC[C@@H]3C[C@@H](F)CN3C)nc3cc(N4CCCc5ccccc54)c4c(c23)OCCC4)CC1 meets or exceeds 7. label 0

Please indicate if the recorded pIC50 for C=C(F)C(=O)N1CCN(c2nc(OC3CCCC3N(C)C)nc3cc(-c4cccc5cccc(Cl)c45)c4c(c23)OCCC4)C[C@@H]1CC#N (stereo partly drawn) meets or exceeds 7. label 0

Please indicate if the recorded pIC50 for C=CC(=O)N1CCN(c2nc(N3CC(CN(C)C)C3)nc3cc(-c4cccc5cccc(Cl)c45)c4c(c23)OCCC4)CC1 meets or exceeds 7. label 0

Please indicate if the recorded pIC50 for C=CC(=O)N1CCN(c2nc(N3CC(N(C)C)C3)nc3cc(-c4c(O)cccc4F)c4c(c23)OCCC4)CC1 meets or exceeds 7. label 0

Please indicate if the recorded pIC50 for C=C(F)C(=O)N1CCN(c2ncnc3cc(-c4c(Cl)c(C)cc5[nH]ncc45)c4c(c23)OCCC4)C[C@@H]1CC#N meets or exceeds 7. label 0

Please indicate if the recorded pIC50 for C=C(F)C(=O)N1CCN(c2nc(OC[C@@H]3CCCN3C)nc3cc(-c4cccc5cccc(F)c45)c4c(c23)OCCC4)C[C@@H]1CC#N meets or exceeds 7. label 1
